Where do these numbers come from? They come from patent US20240409645A1.

Target: T1, human common cytokine receptor γ-chain (IL-2Rγ) (human, UniProt P31785 23-262, limits assumed)
T1 construct: Recombinant human IL-2Rγ protein, coated (ELISA) or amine-coupled to a CM5 chip (SPR); also called hu IL-2R; CD132
T1 sequence: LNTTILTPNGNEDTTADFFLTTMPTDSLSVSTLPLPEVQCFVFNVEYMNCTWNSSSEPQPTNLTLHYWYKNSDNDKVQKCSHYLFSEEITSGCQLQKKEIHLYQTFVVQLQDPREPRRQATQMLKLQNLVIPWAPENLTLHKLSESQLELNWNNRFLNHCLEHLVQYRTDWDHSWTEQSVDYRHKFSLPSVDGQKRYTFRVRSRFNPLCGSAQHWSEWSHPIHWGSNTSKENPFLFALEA
Test: P.E. binding ELISA
Classify by measured PE binding ELISA OD: Fulfilled if it is equal to or exceeds 0.6 OD450 nm, Not fulfilled if it is smaller.

BINDER: FJ1427_P035MP07E01 (VHH, tested as periplasmic extract; also called Clone nr) VHH: QVQLQESGGGLVQAGGSLRLSCAASGRTLSRYAMGWFRQAPGKEREFVACDSWGGDTFYADSVEGRFTFSRDNAKNATYLQMNSLQPEDTAVYYCAGAPTSFATTAYSSSNSYTVWGQGTQVTVSL
ANSWER_LABEL: Fulfilled

BINDER: FJ1427_P035MP07E08 (VHH, tested as periplasmic extract; also called Clone nr) VHH: QVQLVESGGGLVQAGGSLRLSCAASGRTLSRYAMGWFRQAPGKEREFVAADSWGGDTYYDDSVEGRFTFSRDIAKNAVYLQMNSLQPEDTAVYYCAAAPTSFATTAYSSSNSYAYWGQGTQVTVSS
ANSWER_LABEL: Fulfilled

BINDER: FJ1427_P035MP07B09 (VHH, tested as periplasmic extract; also called Clone nr) VHH: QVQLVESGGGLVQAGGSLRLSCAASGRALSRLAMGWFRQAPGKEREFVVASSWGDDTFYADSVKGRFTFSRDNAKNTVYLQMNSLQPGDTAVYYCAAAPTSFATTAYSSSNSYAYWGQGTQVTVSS
ANSWER_LABEL: Fulfilled

BINDER: FJ1427_P035MP07B05 (VHH, tested as periplasmic extract; also called Clone nr; 610) VHH: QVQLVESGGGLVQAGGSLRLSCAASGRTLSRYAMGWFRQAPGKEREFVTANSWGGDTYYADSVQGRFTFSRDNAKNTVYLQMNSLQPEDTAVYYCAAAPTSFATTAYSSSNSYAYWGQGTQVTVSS
ANSWER_LABEL: Not fulfilled

Could you verify whether the entry FJ1427_P035MP07H08 (VHH, tested as periplasmic extract; also called Clone nr; 640) VHH: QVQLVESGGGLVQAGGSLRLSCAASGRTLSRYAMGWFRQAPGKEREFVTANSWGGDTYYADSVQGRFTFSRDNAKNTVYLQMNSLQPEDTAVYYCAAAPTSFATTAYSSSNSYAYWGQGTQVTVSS shows PE binding ELISA OD of no less than 0.6 OD450 nm?
Not fulfilled

I'd appreciate it if you could say whether FJ1427_P035MP07D05 (VHH, tested as periplasmic extract; also called Clone nr) VHH: QVQLVESGGGLVQAGGSLRLSCAASGRTLSRNAMGWFRQAPGKEREFVAADSWGGDTFYADSVEGRFTFSRDNAKNAVYLQMNSLQPEDTAVYYCAGAPTSFATTAYSSSNSYRYWGQGTQVTVSS has PE binding ELISA OD at least equal to 0.6 OD450 nm.
Fulfilled

Hello, I need to know if FJ1427_P035MP07E05 (VHH, tested as periplasmic extract; also called Clone nr) VHH: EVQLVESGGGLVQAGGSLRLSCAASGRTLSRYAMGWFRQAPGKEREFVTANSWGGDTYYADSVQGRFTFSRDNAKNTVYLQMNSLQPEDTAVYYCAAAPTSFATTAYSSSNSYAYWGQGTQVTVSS has measured PE binding ELISA OD not below 0.6 OD450 nm. Thanks!
Not fulfilled
